# Lookup of reported CC50 at 72 h keyed by entry
# method notes: Cytotoxicity against mouse J774 cells assessed as reduction in cell viability after 72 hrs by Alamar Blue assay
# Format: cell-based
parameter: CC50 at 72 h (µM)

INSERT INTO assay_data (molecule, parameter, measured_value) VALUES
  ('C=C1CC[C@@H]2[C@H](CC2(C)C)[C@@](O)(CO)CC[C@@H]1O', 'CC50 at 72 h', 193),
  ('C/C=C(/C)C(=O)OC[C@@H](OC(C)=O)[C@@H](OC(=O)/C(C)=C\C)C(O)(COC(=O)/C(C)=C\C)COC(=O)/C(C)=C\C', 'CC50 at 72 h', 206),
  ('Cc1cc(=O)c2c(O)cc(O[C@@H]3O[C@H](CO)[C@@H](O)[C@H](O)[C@H]3O)cc2o1 [UNDULATOSIDE A]', 'CC50 at 72 h', 191),
  ('CC(=O)OC[C@@]1(O)CC[C@H]2O[C@@]2(C)CC[C@@H]2[C@@H]1CC2(C)C', 'CC50 at 72 h', 273),
  ('O=c1cc(CO)oc2cc(O)cc(O)c12 [CNIDIMOL C]', 'CC50 at 72 h', 256),
  ('CN(C)c1ccc(C(=C2C=CC(=[N+](C)C)C=C2)c2ccc(N(C)C)cc2)cc1 [GENTIAN VIOLET]', 'CC50 at 72 h', 0.8),
  ('C/C=C(/C)C(=O)OCC(O)(COC(=O)/C(C)=C\C)[C@H](OC(=O)/C(C)=C\C)[C@@H](COC(C)=O)OC(C)=O (stereo not given in full)', 'CC50 at 72 h', 198),
  ('C/C1=C/C[C@@H]2[C@H](CC2(C)C)[C@@](O)(CO)CC[C@@H]1O', 'CC50 at 72 h', 194),
  ('CC[C@@H](CO)C(=O)OC[C@@H]1O[C@H](OCc2cc(=O)c3c(O)cc(O)cc3o2)[C@@H](O)[C@H](O)[C@H]1O', 'CC50 at 72 h', 209),
  ('O=c1cc(CO[C@@H]2O[C@H](CO)[C@@H](O)[C@H](O)[C@H]2O)oc2cc(O)cc(O)c12 [MONNIERISIDE A]', 'CC50 at 72 h', 201);
